The origin of these recorded values is PubChem BioAssay (NCI).

# Tested on: SK-MEL-28 melanoma
# MEASUREMENT DESCRIPTION: NCI tumour cell line growth inhibition, 48 h
Reported TGI by item:

Solved entries (count: 3):
{"columns": ["COMPOUND", "TGI"],
 "data": [
  ["Cc1cc(C(=O)NCCN(C)C)c2nc3ccccc3nc2c1", "16.1 µM"],
  ["NC(=O)Cn1c(=O)[nH]c(=O)c2[nH]cnc21", "> 100 µM"],
  ["CN1C=CN(Cc2ccc(-c3ccccn3)nc2)[CH-]1.CN1C=CN(Cc2ccc(-c3ccccn3)nc2)[CH-]1.[Au+3]", "14.5 µM"]
]}

query: Requested field: TGI. Item: C[Si](C)(C)[C@@]1([Se]c2ccccc2)CC[C@@H]1C(=O)c1ccccc1
result: > 100 µM

query: Requested field: TGI. Item: CCCCCCCCCC[C@@H](O)[C@H]1CC[C@@H]([C@H]2CC[C@H]([C@H](O)CCCCCCCCCC[C@@H]3CC(CC(C)=O)C(=O)O3)O2)O1 (stereo partly drawn)
result: > 100 µM

query: Requested field: TGI. Item: C[C@@H](CC(O)C(O)C(C)(C)O)C1CCC23CC12CCC1[C@@]2(C)CCC(=O)C(C)(C)C2CC(OC2OC(CO)C(O)C(O)C2O)[C@]13C (stereo partly drawn)
result: > 10 µM

query: Requested field: TGI. Item: Cc1cc(=O)[nH]c(S(=O)(=O)NC(=S)Nc2ccc(Br)cc2)n1
result: > 100 µM

query: Requested field: TGI. Item: O.O=[Se](=O)(O)O.[NH-]C1CCCCC1[NH-].[Pt+2] (stereo not drawn)
result: > 100 µM

query: Requested field: TGI. Item: N#CC(C#N)=C/C=C/c1cccc([N+](=O)[O-])c1
result: 3.23 µM

query: Requested field: TGI. Item: Nc1ccccc1C#Cc1ccccc1C#CCCCCO
result: 49.7 µM

query: Requested field: TGI. Item: OCC1CC2CC1C1(C2)OCCO1 (stereo not drawn)
result: > 100 µM

query: Requested field: TGI. Item: O=C(O)c1cc2c(cc1CC(Cc1ccccc1)C(=O)O)CCC2 (stereo not drawn)
result: > 100 µM

query: Requested field: TGI. Item: COc1ccc(N2C(=O)CSC2c2cc(OC)c(OC)c(OC)c2)cc1 (stereo not drawn)
result: > 100 µM

query: Requested field: TGI. Item: S=C1OC2C3C4CC5C3C(O1)C1C5C4C21 (stereo not drawn)
result: > 100 µM

query: Requested field: TGI. Item: Cc1ccc2c3ccc4c(c3n(C)c2c1)C(=O)C=CC4=O
result: > 10 µM

query: Requested field: TGI. Item: O=c1c2c(=NCCCN3CCCC3)cc3c(=O)n(CCCN4CCCC4)c(=O)c4c(NCCCN5CCCC5)cc(c(O)n1CCCN1CCCC1)c2c4-3
result: 5.31 µM

query: Requested field: TGI. Item: Fc1cc(Nc2ccc3c(OCCCN4CCOCC4)cccc3n2)ccc1Cl
result: 3.56 µM

query: Requested field: TGI. Item: COc1cc(Nc2ncc(-c3ccccc3)o2)cc(OC)c1OC
result: > 25 µM
